- MEASUREMENT_TARGET: T1, canine OX40L, full length membrane form, expressed on HEK293 cells (canine)
- T1 chain: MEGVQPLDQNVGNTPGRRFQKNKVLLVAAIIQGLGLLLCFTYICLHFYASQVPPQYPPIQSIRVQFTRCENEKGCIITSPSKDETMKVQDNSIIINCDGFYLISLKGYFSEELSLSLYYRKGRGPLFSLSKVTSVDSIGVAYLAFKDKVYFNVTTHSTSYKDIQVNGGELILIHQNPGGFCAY
- ASSAY_PROCEDURE: cell-based or functional assay
Reported % Signal Inhibition Rep2 values follow for various binders
MEASURED_ENDPOINT: % Signal Inhibition Rep2 (%)

>>> experimental_result("PMX083 (antibody, V domains shown, also called PMX83) VH: EVQLVESGGDLVKPGGSLRLSCVASGFTFRTYHMSWVRQAPGKGLQWVAYITRDGISTTYTDAVKGRFTISRDNAKNTLFLQMNSLRADDTAVYYCASDLVLVLGAPFYWGQGTLVTVSS VL: SYELTQPPSVNVTLGETAHITCGGDSIGRKYVQWIQQNPGQAPVVIIYKDSNRPTGIPERFSGANSGNTATLTISGALAEDEADYYCQVGDSGTKAVFGEGTQLTVL")
65.8
>>> experimental_result("PMX103 (antibody, V domains shown) VH: EVQLVESGGDLVRPGGSLRLSCVASGFTFSNLHMNWVRQAPGKGLQWVAFINSGGSGTTYADVVRGRFTISRDYAKNTLNLQMTSLRAEDTAVYYCATGSIWTHFDYWGQGTLVTVSS VL: SFVLTQLPSVSVTLRQTARITCGGDSIGSKSVYWYQQKLGQAPVLIIYRDSNRPTGIPERISGASSGNTATLTISGALAEDEADYYCQVWDSSNKAMFGGGTHLTVL")
26.3
>>> experimental_result("PMX093 (antibody, V domains shown) VH: EVQLVESGGDLVKPGGSLRLSCVASGFTFSSYHMSWVRQAPGKGLQWVAFINSGGGGTNYADAVKGRFTISRDYAKNTLYLQMNSLRAEDTAVYYCVGGSIWTHFDYWGQGTLVTVSS VL: SYVLTQLPSMSVTLRQTARITCEGDIIASKRVYWYQQKLGQVPVLLIYGDSSRPSGIPERFSGANSGNTATLTISGALAEDEADYYCQVWDSGTNSVFGGGTHLTVL")
-0.585
